test: AUC (0 to infinity) in healthy human (24 volunteers) at 400 mg, po reference formulation of drug administered as single dose measured after 0.5 to 10 hrs; type: ADME, organism-based; set-up: dose 400 mg, route oral, time infinity; settings: in vivo
Property name: AUC(0-inf) (ng·h/mL)
Record the value in ng·h/mL, omitting the unit from your answer.

Data point: CC[C@H]1OC(=O)[C@H](C)[C@@H](O[C@H]2C[C@@](C)(OC)[C@@H](O)[C@H](C)O2)[C@H](C)[C@@H](O[C@@H]2O[C@H](C)C[C@H](N(C)C)[C@H]2O)[C@](C)(O)C[C@@H](C)C(=O)[C@H](C)[C@@H](O)[C@]1(C)O [ERYTHROMYCIN] ; AUC(0-inf) = 4790
